Field: drug sensitivity score. Provide a value for each of the compounds that follow.
# System: Calu-3
# assay_name: drug sensitivity score (DSS) for viability; higher = more toxic; extreme values may be limits of the assay
# conditions: 72 h
No unit in the answer, please; the number alone is enough.

Find the recorded drug sensitivity score belonging to COc1ccc(C(C)(C)C)cc1CN[C@H]1C2CCN(CC2)[C@H]1C(c1ccccc1)c1ccccc1 [maropitant] and report it. 5.4

Find the recorded drug sensitivity score belonging to CCN(CC)CCOc1ccc2c(c1)C(=O)c1cc(OCCN(CC)CC)ccc1-2 [tilorone] and report it. 1.2

Find the recorded drug sensitivity score belonging to CC(C(=O)O)c1ccc2c(c1)Cc1cccnc1O2 (stereo not given) [pranoprofen] and report it. 0

Find the recorded drug sensitivity score belonging to O=C(N[C@@H](Cc1c[nH]c2ccccc12)C(=O)O)c1ccc(Cl)cc1 [benzotript] and report it. 0

Find the recorded drug sensitivity score belonging to Cc1cc(I)ccc1Nc1c(C(=O)NOCC2CC2)cc(F)c(F)c1F and report it. 5.7

---

# Tested on: Calu-3
# assay_name: cell viability relative to DMSO; higher = less toxic
# conditions: 72 h; 1000 nM
recorded_metric: cell viability (%)
Enter your answer as a number in %; do not include the unit.

Find the recorded cell viability belonging to COc1ccccc1N1CCN(CCN2C(=O)c3ccccc3C(C)(C)C2=O)CC1 [ARC-239] and report it. 102

Find the recorded cell viability belonging to CO[C@@H]1[C@H](O)[C@@H](CO)O[C@H]1n1cnc2c(NC3CCCCC3)ncnc21 [SDZ-WAG-994] and report it. 88.3

Find the recorded cell viability belonging to CC1(C)CN2C(CS/C(=N\C3CCCCC3)NC3CCCCC3)=CSC2=N1 [IT1t] and report it. 89.7

Find the recorded cell viability belonging to Cc1cccc(C#Cc2ccccc2)n1 [MPEP] and report it. 89.6

Find the recorded cell viability belonging to C[N+](C)(C)CC(O)CC(=O)[O-] (stereo not given) [carnitine-(D/L)] and report it. 99.9

Find the recorded cell viability belonging to OCCNC1CCCc2c1[nH]c1ccc(-c3ccccc3)cc21 (stereo not given) [casin] and report it. 106

Find the recorded cell viability belonging to CC(=O)NCCc1c[nH]c2ccccc12 [N-acetyltryptamine] and report it. 105

Find the recorded cell viability belonging to Cc1ncc(Cl)cc1NCc1ccc(C(=O)N[C@@H](CC2CCCC2)C(=O)NC2CC2)s1 and report it. 89.7

Find the recorded cell viability belonging to Cc1cn([C@H]2O[C@@H](CO)[C@H](O)[C@H]2F)c(=O)[nH]c1=O [clevudine] and report it. 97.9

Find the recorded cell viability belonging to Cc1[nH]c(/C=C2\C(=O)Nc3ccccc32)c(C)c1CCC(=O)O [orantinib] and report it. 106

Find the recorded cell viability belonging to O=C1c2ccccc2C(=O)C1c1ccc(Br)cc1 [bromindione] and report it. 95.6

Find the recorded cell viability belonging to Cc1cccc(C)c1NC(=O)c1ccccc1C(=O)O [ftaxilide] and report it. 122

Find the recorded cell viability belonging to CCN(CC)Cc1cc(Nc2ccnc3cc(Cl)ccc23)ccc1O [amodiaquine] and report it. 91.5

Find the recorded cell viability belonging to CCOC(=O)c1ccc(O)cc1 [ethyl-paraben] and report it. 97.3

Find the recorded cell viability belonging to COc1ccc(N(C)c2nc(C)nc3ccccc23)cc1 [verubulin] and report it. 42.3

Find the recorded cell viability belonging to NCCCCCNCC12CC3CC(CC(C3)C1)C2 [IEM1754] and report it. 97.8

Find the recorded cell viability belonging to O=C1COc2nccc(-c3ccccc3F)c2CN1Cc1cc(C(F)(F)F)cc(C(F)(F)F)c1 [GPBAR-A] and report it. 98.7

Find the recorded cell viability belonging to CCCCC(=O)OCC(=O)[C@]1(O)Cc2c(O)c3c(c(O)c2[C@@H](O[C@H]2C[C@H](NC(=O)C(F)(F)F)[C@H](O)[C@H](C)O2)C1)C(=O)c1c(OC)cccc1C3=O [valrubicin] and report it. 60.9

Find the recorded cell viability belonging to N[C@@H](Cc1c[nH]c2ccccc12)C(=O)O [tryptophan] and report it. 107

Find the recorded cell viability belonging to Clc1ccccc1CN1CCc2sccc2C1 [ticlopidine] and report it. 91.7

---

Field: cell viability. Provide a value for each of the molecules that follow.
# System: HepG2
# assay_name: cell viability relative to DMSO; higher = less toxic
# conditions: 72 h; 1000 nM
Enter your answer as a number in %; do not include the unit.

Short answer please: cell viability, HepG2, entry O=C(O)[C@H](Cc1ccc(Nc2nccc3ccncc23)cc1)NC1=C(Br)C(=O)C12CCCCC2 101

Short answer please: cell viability, HepG2, entry O=C(NS(=O)(=O)c1ccc(Br)s1)c1ccc(Cl)cc1Cl 110

Short answer please: cell viability, HepG2, entry CC(=O)[C@H]1CC[C@H]2[C@@H]3CCC4=CC(=O)CC[C@]4(C)[C@H]3CC[C@]12C 96.4

Short answer please: cell viability, HepG2, entry CC(C)(C)C(=O)NCCCC(=O)O 106

Short answer please: cell viability, HepG2, entry CCC(=O)c1cc(-c2ccc(Cl)cc2)n(-c2ccc(S(N)(=O)=O)cc2)c1C 122

Short answer please: cell viability, HepG2, entry CNc1ncnc2c1ncn2[C@@H]1O[C@H](CO)[C@@H](O)[C@H]1O 104

Short answer please: cell viability, HepG2, entry Oc1cc2c(cc1O)[C@@H]1c3ccc(O)c(O)c3OC[C@]1(O)C2 104

Short answer please: cell viability, HepG2, entry Cc1noc(NS(=O)(=O)c2cccc3c(N(C)C)cccc23)c1C 94.5

Short answer please: cell viability, HepG2, entry CCN(CC)CCOc1ccc2c(c1)C(=O)c1cc(OCCN(CC)CC)ccc1-2 96.8

---

Field: cell viability. Provide a value for each of the molecules that follow.
# Test system: Vero E6
# assay_name: cell viability relative to DMSO; higher = less toxic
# conditions: 72 h; 10 nM
Enter your answer as a number in %; do not include the unit.

Find the recorded cell viability belonging to C[C@@H]1C[C@H]2[C@@H]3C[C@H](F)C4=CC(=O)C=C[C@]4(C)[C@@]3(Cl)[C@@H](O)C[C@]2(C)[C@H]1C(=O)COC(=O)C(C)(C)C [clocortolone-pivalate] and report it. 90.6

Find the recorded cell viability belonging to Cc1c(-c2ccc(O)cc2)n(Cc2ccc(OCCN3CCCCCC3)cc2)c2ccc(O)cc12 and report it. 105

Find the recorded cell viability belonging to C[C@@H](O)[C@H]1C(=O)N2C(C(=O)O)=C(SCCNC=N)C[C@H]12 and report it. 102

Find the recorded cell viability belonging to N=C(N)N and report it. 106

Find the recorded cell viability belonging to COc1ccccc1N1CCN(CCN2C(=O)c3ccccc3C(C)(C)C2=O)CC1 and report it. 95.2

Find the recorded cell viability belonging to Cc1cccc(C)c1NC(=O)c1ccccc1C(=O)O [ftaxilide] and report it. 102

Find the recorded cell viability belonging to COc1cc(C)nc(-n2nc(C)cc2OC)n1 [epirizole] and report it. 99.3

---

# System: Calu-3
# assay_name: cell viability relative to DMSO; higher = less toxic
# conditions: 72 h; 10000 nM
recorded_metric: cell viability (%)
Enter your answer as a number in %; do not include the unit.

Find the recorded cell viability belonging to CC(C)[C@H]1[C@@H]2CC[C@@H](C2)[C@@H]1N and report it. 104

Find the recorded cell viability belonging to Cc1cc(OCCN2CCOCC2)nn1-c1ccc2ccccc2c1 and report it. 96.7

Find the recorded cell viability belonging to C[C@@H]1CCN(C(=O)CC#N)C[C@@H]1N(C)c1ncnc2[nH]ccc12 and report it. 110

Find the recorded cell viability belonging to CN(C)CC(c1ccc(O)cc1)C1(O)CCCCC1 (centres undefined) and report it. 98.7

Find the recorded cell viability belonging to Fc1ccc(Cl)cc1-c1nc(Nc2ccncc2)c2nccnc2n1 and report it. 103

Find the recorded cell viability belonging to Cc1cn([C@H]2O[C@@H](CO)[C@H](O)[C@H]2F)c(=O)[nH]c1=O and report it. 99.3

Find the recorded cell viability belonging to CC(=O)CC(c1ccccc1)c1c(O)c2ccccc2oc1=O (centres undefined) and report it. 115

Find the recorded cell viability belonging to CO[C@@H]1[C@H](O)[C@@H](CO)O[C@H]1n1cnc2c(NC3CCCCC3)ncnc21 and report it. 109

Find the recorded cell viability belonging to COc1ncc(-c2ccc3c(Nc4cc(Oc5cc(F)cc(F)c5)cc(C(=O)O)c4)c(S(=O)(=O)NC4CC4)cnc3c2)c(OC)n1 and report it. 102

---

# Tested on: Caco-2
# assay_name: cell viability relative to DMSO; higher = less toxic
# conditions: 72 h; 100 nM
recorded_metric: cell viability (%)
Enter your answer as a number in %; do not include the unit.

Find the recorded cell viability belonging to N#CCC1(n2cc(-c3ncnc4[nH]ccc34)cn2)CN(C2CCN(C(=O)c3ccnc(C(F)(F)F)c3F)CC2)C1 and report it. 97.2

Find the recorded cell viability belonging to C[C@@H](Oc1ccc(Cl)cc1)c1ccnc2ncnn12 and report it. 94

Find the recorded cell viability belonging to Cc1cccc(-c2[nH]c(C(C)(C)C)nc2-c2ccc3nccnc3c2)n1 and report it. 104

Find the recorded cell viability belonging to C=CC(C)(C)c1cc(/C=C/C(=O)c2ccc(O)cc2)c(OC)cc1O and report it. 105

Find the recorded cell viability belonging to C[C@@H]1COCCN1c1cc(C2(S(C)(=O)=O)CC2)nc(-c2cccc3[nH]ccc23)n1 and report it. 89.5

Find the recorded cell viability belonging to COc1ccc2[nH]c([S+]([O-])Cc3ncc(C)c(OC)c3C)nc2c1 (stereo not drawn) [omeprazole-magnesium] and report it. 100

Find the recorded cell viability belonging to CCNC(=O)C[C@@H]1N=C(c2ccc(Cl)cc2)c2cc(OC)ccc2-n2c(C)nnc21 and report it. 88.6

Find the recorded cell viability belonging to C[C@H]1c2cccc(O)c2C(=O)C2=C(O)[C@]3(O)C(=O)C(C(N)=O)=C(O)[C@@H](N(C)C)[C@@H]3[C@@H](O)[C@@H]21 and report it. 92.6
